system: HCT-15 colon; test: NCI tumour cell line growth inhibition, 48 h; in the data active = GI50 below about 0.43 µM; inactive = the rest
Your response should consist of one outcome taken from label 1 for active, label 0 for inactive

// below: answered molecules
INSERT INTO assay_data (molecule, class_name) VALUES
  ('NCCCn1c2c(c3ccccc3c1=O)C(=O)c1ccccc1-2', 'label 1'),
  ('COc1ccc(-c2nn(-c3cccc(Cl)c3)cc2-c2nc(N)[nH]c(=O)c2C#N)cc1', 'label 0'),
  ('O=C1/C(=C/N2N=C(c3ccc4ccccc4c3)CC2c2ccccc2O)SC(=S)N1c1cccnc1 (stereo not given)', 'label 0'),
  ('Cc1ccc2[c](c1)[Sn]([c]1ccccc1)([c]1ccccc1)[c]1cc(C)ccc1N2C', 'label 0'),
  ('Oc1ccc(Oc2cnc3ccccc3n2)cc1', 'label 0'),
  ('O=C(N/N=C/c1ccc(O)cc1O)c1cccnc1', 'label 0'),
  ('NCCCOc1cc2ccccc2cc1C(=O)NCCCOc1cc2ccccc2cc1C(=O)Nc1ccc(Cl)cc1O', 'label 0'),
  ('CN(C)CCNc1nc2ccccc2c2c(=O)c3cc(F)ccc3sc12', 'label 0');

Q) Just curious, what result did NC(N)=N/N=C(\N=Nc1ccccc1)c1ccc(Cl)cc1 get here?
A) label 0

Q) Hey, what did the test say about COc1cc(OC)c2sc(-c3ccc(-n4cncc4-c4cc(OC)c(OC)c(OC)c4)cc3)nc2c1 ?
A) label 0

Data credit: PubChem BioAssay (NCI)
